Would you kindly list pest or weed control at 250 g/ha for each of these compounds?
# Test system: Alopecurus myosuroides (ALOMY)
# protocol_text: Post-emergence herbicidal activity, glasshouse pot test
# Assay type: in vivo
# experimental_context: 312 h, rate 250 g/ha, evaluated after 13 days, 100=total damage to plant, 0=no damage to plant
Report field: quantity (unit follows the number).

Use the examples below as a reference point.
compound: CCc1ccc(Oc2ncc(C(F)(F)F)cc2F)cc1C1=C(O)C2C(C1=O)[C@H]1CC[C@@H]2CC1 (some centres unmarked)
result: 100%

compound: CCc1ccc(Oc2ccc(C(F)(F)F)cn2)cc1C1=C(O)C2C(C1=O)[C@H]1CC[C@@H]2CC1 (some centres unmarked)
result: 90%

Below is a list of compounds. For each, state its recorded pest or weed control at 250 g/ha.
1. CCc1ccc(Oc2ccc(Br)cc2F)cc1C1=C(O)CCC1=O
2. CCc1ccc(Oc2cnc3cc(Cl)ccc3n2)cc1C1=C(O)CCC1=O
3. CCc1ccc(Oc2ccc(Br)cc2C)cc1C1=C(O)[C@H]2[C@@H](C1=O)[C@@H]1CC[C@H]2O1

Resp:
0%
90%
90%
